The measurements presented in this section are drawn from patent US12077503B2.

Test system: giant foxtail (Setaria faberii)
TEST_NAME: Test A preemergence
Type: in vivo
CONDITION_PARAMETERS: Setaria faberi, pre-emergence, 240 h, 125 g ai/ha, preemergence; 0 to 100 scale where 0 is no effect and 100 is complete control; read-out: Foxtail, Giant plant response rating
MEASUREMENT_TYPE: pest or weed control at 125 g/ha
Please report the result as a number followed by the unit.

Here are 4 compounds together with their reported answers.
1. Cc1c(F)ccc([C@H]2CN(C)C(=O)[C@@H]2C(=O)Nc2ccccc2F)c1F
90%
2. Cc1c(F)cccc1NC(=O)[C@H]1C(=O)N(C)C[C@@H]1c1cc(F)c(F)c(F)c1
90%
3. C=CCOc1cccc(C2CN(C)C(=O)C2C(=O)Nc2cccc(F)c2F)c1 (centres unmarked)
90%
4. O=C1NCC(c2cccc(I)c2)C1C(=O)Nc1ccccc1F (centres unmarked)
80%

Request: Specify pest or weed control at 125 g/ha for CN1C[C@H](c2ccc(C(F)(F)F)cc2)[C@@H](C(=O)Nc2cccc(F)c2Br)C1=O and stop.
Response: 90%

----------
System: giant foxtail (Setaria faberii)
TEST_NAME: Test A postemergence
Format: in vivo
CONDITION_PARAMETERS: Setaria faberi, post-emergence, 240 h, Postemergence, 500 g ai/ha; visual injury, 0 to 100 scale (0 no effect, 100 complete control), approx. 10 d; read-out: Plant response rating, Foxtail, Giant
Source text: […]
Examples of molecules with documented pest or weed control at 500 g/ha follow.
Expressed in %, but write only the number.

Field: example entries. Status: answers known.
1. O=C1NC[C@H](c2cccc(C(F)(F)F)n2)[C@H]1C(=O)Nc1cccc(F)c1F [Compound 1385]
90
2. CCc1ccc([C@H]2CNC(=O)[C@@H]2C(=O)Nc2c(F)cccc2F)cc1 [Compound 1248]
20
3. O=C1NCC(c2ccccc2)C1C(=O)Nc1ccccc1 (stereo not drawn) [Compound 1358]
0
4. CN1CC[C@H](c2cccc(C(F)(F)F)c2)[C@@H](C(=O)Nc2cccc(F)c2F)C1=O [Compound 1330]
90
5. N#Cc1ccc(NC(=O)C2C(=O)NCC2c2ccccc2)cc1 (stereo not drawn) [Compound 1355]
0

Request: Provide pest or weed control at 500 g/ha, recorded with giant foxtail (Setaria faberii), of CN1C[C@H](c2ccc(C(F)F)cc2)[C@@H](C(=O)Nc2cccc(F)c2F)C1=O [Compound 1383]
Response: 90

Request: Give reported pest or weed control at 500 g/ha for CN1C[C@H](c2ccc3c(c2)CCO3)[C@@H](C(=O)Nc2cccc(F)c2F)C1=O [Compound 1324] (giant foxtail (Setaria faberii))
Response: 90

Request: Under giant foxtail (Setaria faberii), report pest or weed control at 500 g/ha for CN1CC[C@H](c2cccc(C(F)(F)F)c2)[C@@H](C(=O)Nc2ccccc2F)C1=O [Compound 1331]
Response: 90

Request: Print giant foxtail (Setaria faberii) pest or weed control at 500 g/ha for CN1C[C@H](c2ccc(F)c(C#N)c2)[C@@H](C(=O)Nc2cccc(F)c2F)C1=O [Compound 1255] .
Response: 80

----------
Test system: ducksalad (Heteranthera limosa)
TEST_NAME: Test B flooded paddy test
Format: in vivo
CONDITION_PARAMETERS: Heteranthera limosa, 250 g ai/ha, Flood; 0 to 100 scale where 0 is no effect and 100 is complete control; read-out: Ducksalad plant response rating
This section presents molecules with their documented pest or weed control at 250 g/ha values.
Field format: number, assumed %, no unit text.

Observe how each entry below is paired with its result.
1) Cc1ccc([C@H]2CCN(C)C(=O)[C@@H]2C(=O)Nc2ccc(F)c(F)c2F)cc1
100
2) CN1C[C@H](c2cc(C(F)F)cs2)[C@@H](C(=O)Nc2cnccc2C(F)(F)F)C1=O
0

Request: Name the recorded pest or weed control at 250 g/ha of the molecule listed here: CSc1ccccc1NC(=O)[C@H]1C(=O)N(C)CC[C@@H]1c1ccc(OC(F)(F)F)cc1
Response: 0

Request: Name the recorded pest or weed control at 250 g/ha of the item Cc1nc([C@H]2CNC(=O)[C@@H]2C(=O)Nc2ccccc2F)cs1 in your answer.
Response: 40

Request: Input O=C1NC[C@H](c2ccc(OC(F)F)cc2)[C@H]1C(=O)Nc1ccc(F)cc1F , output reported pest or weed control at 250 g/ha.
Response: 100

Request: Dear colleague, please send me the reported pest or weed control at 250 g/ha for CN1CC(c2cccc(C(F)(F)F)c2)C(C(=O)Nc2ccccc2C(C)(C)O)C1=O (stereo not shown) when you can.
Response: 0

Request: Please indicate pest or weed control at 250 g/ha recorded for CN1C[C@H](c2ccc(C(F)F)cc2)[C@@H](C(=O)Nc2ccc(F)c(F)c2F)C1=O
Response: 100

Request: Supply recorded pest or weed control at 250 g/ha for O=C(Nc1ccccc1F)[C@H]1C(=S)NC[C@@H]1c1ccc(C(F)(F)F)cc1 (racemic) here.
Response: 0
